Classes (intrinsic clearance, rat liver microsomes): b0: < 100 mL/min/kg; b1: ≥ 100 mL/min/kg and < 200 mL/min/kg; b2: ≥ 200 mL/min/kg

Example entries begin here.
N#Cc1nc(-c2ccccc2)oc1NCc1ccc2c(c1)OCO2 = b2
C[C@H]1Oc2cc(cnc2N)-c2c(nn(C)c2C#N)CN(C)C(=O)c2ccc(F)cc21 = b0
CCN1CCN(C(=O)CNc2ncnc3onc(C)c23)CC1 = b0
COc1ccc(Cc2ncnn2-c2ccc3c(c2)OCO3)c(OC)c1 = b2
COc1cc(C#N)ccc1Cn1ccnc1C(C)C = b1
COc1ccc(NC(=O)c2snnc2C)c(OC)c1 = b1
CCCc1ncncc1C(=O)NCc1noc(C2CC2)n1 = b1
CCN(C(C)=O)c1ccc(C)cc1C(=O)O = b0

Please let me know in which category the item Cn1cc(NC(=O)c2cnn3cccnc23)c(C2CCCCC2)n1 belongs.
b1

Would you kindly repeat that for O=C(NCc1nc(-c2cnccn2)n[nH]1)C1Cc2ccccc2C1 ?
b0

Would you kindly repeat that for Cc1nnnn1CCN(C)c1ccccc1 ?
b2

Would you kindly repeat that for C[C@]1(O)CN(C(=O)Cn2cnc3ccccc3c2=O)CC[C@@H]1Oc1ccccc1 ?
b0

----------
Decision: intrinsic clearance, rat liver microsomes compared against 700 mL/min/kg; not below it gives T, below it gives F.

Example entries begin here.
COc1ccc(CN(C)C(=O)Nc2ccccc2)cc1F = F
Cc1noc(Cc2ccc(C)c(O)c2)n1 = F
CN1C(=O)[C@H](Cc2ccccc2)N[C@@H]1C(C)(C)C = T

Please check the record COc1cc2nc(/C=C/c3cocn3)sc2cc1OC and state if its intrinsic clearance, rat liver microsomes is at or above 700 mL/min/kg.
F

Would you kindly repeat that for CC(C)c1csc(NC(=O)C2CCN(c3ncccn3)CC2)n1 ?
F

----------
The compounds listed here are annotated with their intrinsic clearance, human liver microsomes.
API: value field is a number in mL/min/kg; no unit string.

COc1cncc(-c2ccnc3[nH]ccc23)c1 = 67.1
Cc1cnn(C2CN(CC3(O)CCCCC3)C2)c1 = 54.7
O=C(NC1CCNCC1)c1ccc2[nH]ncc2c1 = 25.9
Cc1ccccc1CSc1ccc(-c2ccccn2)nn1 = 95.6
C[C@@H](NC(=O)N1CCC2(CCOCC2)CC1)c1ccc(F)cc1 = 6.19
O=C(Cc1cn2ccccc2n1)N1CCC(n2c(=O)[nH]c3ccccc32)CC1 = 33.8
COc1ccc(-c2nnc3ccc(C(F)(F)F)cn23)cc1OC(C)C = 31.2
CN1CCC(n2ncc3[nH]c(-c4ccc5ccccc5c4)nc32)CC1 = 23.4

Shifting focus to the compound that follows.
Tell me the measured intrinsic clearance, human liver microsomes of Cc1nn(CCNS(=O)(=O)N2CCOCC2)c(C)c1C , please.
6.58

----------
The compounds listed here are annotated with their MDR1-MDCK efflux ratio.
Keep it simple and answer with nothing but the number.

Here's what some known entries look like.
Fc1ccc(CN2CCCN(c3ccc4nnnn4n3)CC2)cc1 = 0.606
COc1nc2c(cc1CNC(=O)N1CCC[C@@H]1CO)C(=O)N(C1CCCC1)C2 = 78.1
CN(Cc1ccc(N)nc1)c1nc(C(F)(F)F)cs1 = 0.598
CCS(=O)(=O)Nc1ccc(Oc2ccc(F)cc2F)c(-c2cn(C)c(=O)c3[nH]ccc23)c1 = 51.2
O=C(Nc1nc2ccccc2[nH]1)C1CCCCC1 = 0.721
O=C(Cc1csc(-c2ccccn2)n1)NC1CCCCCC1 = 0.945

Tell me the measured MDR1-MDCK efflux ratio of COc1cccc(OCCCN)c1-c1cc(Nc2cnc(C#N)cn2)n[nH]1 , please.
17.5

Would you kindly repeat that for CN1CCC(OC(=O)Nc2ccc(Cl)c(Cl)c2)CC1 ?
0.397

Would you kindly repeat that for COCc1cc(-c2nc(CCc3ccccc3)n[nH]2)ccc1OC ?
2.29

Would you kindly repeat that for COc1cccc(CN2CCN(C(=O)Cc3ccc(C)cc3)[C@@H](C)C2)c1 ?
0.739

Origin of measurements: the Biogen ADME set (Fang et al. 2023)
